The measured values listed here are drawn from paper PMC9022012.

Target: HLA-DQ8 (DQA1*03:01/DQB1*03:02) (Homo sapiens, UniProt P01909+P01920, A209T/A45G/C70Q/D89A/DUP78-78/E183D/E77G/F237L/G63E/H199R/I129T/K197E/L178F/L74F/L98V/Q57E/Q76R/S185I/S97I/T217I/T49S/V73L/Y58L)
Test: Competitive ELISA HLA class II peptide-binding assay, DQ8
No end group written: not given here.
measured endpoint: IC50 (µM)
One number for each entry, in µM.

input: Quick one: IC50 for ADVEVYRAVTPLGPPD [DQB45-57, reference compound] ?
output: 0.73
